Each entry below lists one item and its recorded %Inh value.
# System: LTK;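 also: KINOMEscan kinase panel screen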
# CONDITION PARAMETERS: concentration: 1 μM, replicates: in singlicate; n = 1
Write the numeric value and append its unit.

Observe how each entry below is paired with its result.
CNc1cc(-c2ccc3c(N)n[nH]c3c2)nc(N)n1 :: 0%
CC(=O)c1c(C)c2cnc(Nc3ccn(C)n3)nc2n(C2CCCC2)c1=O :: 0%
Cc1cnc(N)c(/C=C/c2cncc(C(=O)NCCc3ccc(Cl)cc3Cl)c2)c1.Cl :: 0%

Turning now to a further molecule:
Task: Consider the molecule CC[C@@H]1CO[C@H](C(=O)Nc2ccccc2)CN1c1cc(-c2ccc3c(N)n[nH]c3c2)nc(NC)n1 and give its recorded %Inh.
Result: 5%
